System: AsPC-1 cells (KRAS G12D)
Assay: 3D Cell viability assay in AsPC-1 cells (Biological Example 6)
Assay type: cell-based
Conditions: Homo sapiens, ASPC1; AsPC-1 (KRAS G12D) spheroids, 72 hours
Quick reference: IC50 of the listed items.

Example entries begin here.
compound	value observed
CCN(c1nc(OC[C@@]23CCCN2C[C@H](F)C3)nc2c(F)c(-c3ccc(F)c4sc(N)c(C#N)c34)c(C(F)(F)F)cc12)[C@@H]1CCN(C(=O)C2CC2)[C@@H]1C (atropisomer, axis not shown)	100 to 1000 nM
CCN(c1nc(OC[C@@]23CCCN2C[C@H](F)C3)nc2c(F)c(-c3ccc(F)c4sc(N)c(C#N)c34)c(C(F)(F)F)cc12)[C@@H]1CCN(C(C)=O)C1	≤ 100 nM
CCN(c1nc(OC[C@@]23CCCN2C[C@H](F)C3)nc2c(F)c(-c3ccc(F)c4sc(N)c(C#N)c34)c(C(F)(F)F)cc12)[C@H]1C[C@H]2COC(=O)N2C1 (atropisomer, axis not shown; (aS))	≤ 100 nM
CCN(c1nc(OC[C@@]23CCCN2C[C@H](F)C3)nc2c(F)c(-c3ccc(F)c4sc(N)c(C#N)c34)c(C(F)(F)F)cc12)[C@H]1CCN(C(C)=O)C1	≤ 100 nM

Attention now shifts to the item below.
Return the recorded IC50 value; entry: N#Cc1c(N)sc2c(F)ccc(-c3c(C(F)(F)F)cc4c(N5CCn6nc(N7CCOCC7)cc6C5)nc(OC[C@@]56CCCN5C[C@H](F)C6)nc4c3F)c12
≤ 100 nM

All figures here come from patent US20260042764A1.
